- tested-target: N-glycosylase/DNA lyase (Homo sapiens);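 also: OGG1 cleavage of a quenched duplex DNA oligonucleotide, coupled to APE1 for strand incision, read as fluorescence at 594 nm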
- assay-setup: Compound Concentration 10.0 uM, Hit No
- Description: Inhibition of OGG1 by quantifying inhibition of OGG1-mediated cleavage and dissociation of quenched duplex DNA oligonucleotides, measured as fluorescence at 594 nm. To generate a functional strand incision and increase turn-over this assay is coupled to APE1.

[
  {
    "given-smiles": "Cc1cn2cc(CC(=O)N3CCC4(CC3)CN(Cc3ccc(-n5nccn5)cc3Cl)C4)nc2s1",
    "unit-descriptor": "%",
    "inhibition": -2.88
  },
  {
    "given-smiles": "O=C(NCCCN1CCOC1=O)c1cnc(NCc2cc(Br)ccc2Br)nc1NC1CCCC1",
    "unit-descriptor": "%",
    "inhibition": 2.35
  },
  {
    "given-smiles": "C[C@@H]1CN(c2cc(-c3n[nH]c4ccc(OC5(C)CC5)cc34)ncn2)C[C@H](C)O1",
    "unit-descriptor": "%",
    "inhibition": -2.23
  },
  {
    "given-smiles": "COc1ccc(OC(=O)N(CC(=O)O)Cc2ccc(OCCc3nc(-c4ccccc4)oc3C)cc2)cc1",
    "unit-descriptor": "%",
    "inhibition": 27
  },
  {
    "given-smiles": "CC(C)(O)CCn1c(=O)n(C(=O)N[C@H](C(N)=O)C(C)(C)C)c2ccccc21",
    "unit-descriptor": "%",
    "inhibition": -0.203
  }
]

---

Entries and their inhibition values follow.
- tested-target: Uracil-DNA glycosylase (Homo sapiens);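 also: UNG excision on a quenched double-stranded DNA oligo probe, with APE1 added for strand incision and turnover, read as fluorescence at 594 nm as strands separate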
- assay-setup: Compound Concentration 10.0 uM, Hit No
- Description: Inhibition of UNG by quantifying inhibition of UNG-mediated cleavage and dissociation of quenched duplex DNA oligonucleotides, measured as fluorescence at 594 nm. To generate a functional strand incision and increase turn-over this assay is coupled to APE1.

[
  {
    "molecule": "Cc1cc(C)c(NC(=O)C2CC3CCC2C3)c(C)c1 (centres undefined)",
    "unit-descriptor": "%",
    "inhibition": -9.01
  },
  {
    "molecule": "CCCN(CCC)CCc1cccc2c1CC(=O)N2",
    "unit-descriptor": "%",
    "inhibition": -9.36
  },
  {
    "molecule": "NS(=O)(=O)c1c(Cl)ccc(NC(=O)Nc2cccc(Cl)c2Cl)c1O",
    "unit-descriptor": "%",
    "inhibition": -6.48
  },
  {
    "molecule": "CCC(=O)NCC[C@@H]1CCc2ccc3c(c21)CCO3",
    "unit-descriptor": "%",
    "inhibition": -9.69
  },
  {
    "molecule": "CCCC(=O)C1(c2ccccc2)CCN(C(=O)[C@@H](Cc2ccc(OC)cc2)NC(=O)[C@@H](N)Cc2cncn2C)CC1",
    "unit-descriptor": "%",
    "inhibition": -7.56
  },
  {
    "molecule": "Cc1cc(OC2CCS(=O)(=O)CC2)cc(C)c1-c1cccc(COc2ccc(CCC(=O)O)c(F)c2)c1",
    "unit-descriptor": "%",
    "inhibition": 3.54
  },
  {
    "molecule": "Cc1noc(-c2ccc(-c3ccc(CC(=O)O)cc3)cc2)c1NC(=O)O[C@H](C)c1ccccc1Cl",
    "unit-descriptor": "%",
    "inhibition": -9.06
  },
  {
    "molecule": "Cn1cc(C(=O)O)c2ccc(N3CCC(OCc4c(-c5c(Cl)cccc5Cl)noc4C4CC4)CC3)cc21",
    "unit-descriptor": "%",
    "inhibition": -3.65
  },
  {
    "molecule": "Cc1cc(-c2ccc3c(c2)CC[C@H]3N2CC3(CCN(C(=O)Cc4cn5cc(C)sc5n4)CC3)C2)ncn1",
    "unit-descriptor": "%",
    "inhibition": -6.41
  }
]

---

Quick reference for inhibition among some compounds
- tested-target: Methyl-CpG-binding domain protein 4 (Homo sapiens)
- assay-setup: Compound Concentration 10.0 uM, Hit No
- Description: Inhibition of MBD4 by quantifying inhibition of MBD4-mediated cleavage and dissociation of quenched duplex DNA oligonucleotides, measured as fluorescence at 594 nm. To generate a functional strand incision and increase turn-over this assay is coupled to APE1.

[
  {
    "compound": "CN1CCN(c2ccc(Nc3c4ccccc4nc4ccccc34)cc2)CC1",
    "unit-descriptor": "%",
    "inhibition": 88.7
  },
  {
    "compound": "CC[C@H]1[C@@H](O)[C@@H]2[C@H](CC[C@]3(C)[C@@H]([C@H](C)CCC(=O)O)CC[C@@H]23)[C@@]2(C)CC[C@@H](O)C[C@@H]12",
    "unit-descriptor": "%",
    "inhibition": 77.2
  },
  {
    "compound": "O=C(O)c1ccc2cc(-c3ccc(O)c(C45CC6CC(CC(C6)C4)C5)c3)ccc2c1",
    "unit-descriptor": "%",
    "inhibition": 57.8
  },
  {
    "compound": "C=CC(=O)Nc1ccc2[nH]c(=O)n(C3CCN(Cc4ccc(-c5nc6cc[nH]c(=O)c6cc5-c5ccccc5)cc4)CC3)c2c1",
    "unit-descriptor": "%",
    "inhibition": 24
  },
  {
    "compound": "CC1(C)CC(CN2CCC(F)(CNC(=O)c3cc(Cl)cc(Cl)c3)CC2)CCO1 (stereo unspecified)",
    "unit-descriptor": "%",
    "inhibition": 12.4
  },
  {
    "compound": "Clc1cccc(COc2cncc(N3CCNCC3)n2)c1",
    "unit-descriptor": "%",
    "inhibition": -8.79
  },
  {
    "compound": "CCCCN(CC)c1nc(C)nc2c1c(C)cn2-c1c(C)cc(C)cc1C",
    "unit-descriptor": "%",
    "inhibition": -9.26
  },
  {
    "compound": "CC1(C)CN2C(CS/C(=N\\C3CCCCC3)NC3CCCCC3)=CSC2=N1",
    "unit-descriptor": "%",
    "inhibition": 7.88
  },
  {
    "compound": "FC(F)(F)c1cccc(-c2noc(-c3cc(-c4ccccc4)c(C(F)(F)F)s3)n2)c1",
    "unit-descriptor": "%",
    "inhibition": 6.66
  },
  {
    "compound": "Cc1c(NC(=O)COc2ccc(Cl)cc2C(=O)c2cc(F)cc(C(F)(F)F)c2)ccc(C(=O)O)c1F",
    "unit-descriptor": "%",
    "inhibition": 59.6
  },
  {
    "compound": "Cc1cc(OCCCS(C)(=O)=O)cc(C)c1-c1cccc(COc2ccc3c(c2)OC[C@H]3CC(=O)O)c1",
    "unit-descriptor": "%",
    "inhibition": 46.9
  },
  {
    "compound": "Cc1noc([C@H]2C[C@@H](c3ccc(C(F)(F)F)cc3)CN(C(=O)N3CCS(=O)(=O)C3)C2)n1",
    "unit-descriptor": "%",
    "inhibition": 42.2
  },
  {
    "compound": "Cn1cc(Nc2nccc(N3CC4CCC(C3)N4C(=O)[C@@H]3CC3(F)F)n2)cn1",
    "unit-descriptor": "%",
    "inhibition": -6.61
  },
  {
    "compound": "CCCC(=O)N[C@@H](Cc1ccc(O)cc1)C(=O)NCCCCCCCNCCCCN",
    "unit-descriptor": "%",
    "inhibition": 20.4
  },
  {
    "compound": "CSc1cccnc1N1CCN(Cc2nc3ccccc3[nH]2)CC1",
    "unit-descriptor": "%",
    "inhibition": 54.7
  },
  {
    "compound": "COCCc1ccc(-c2c(C)nc3c(N4CCOCC4)ccnn23)cn1",
    "unit-descriptor": "%",
    "inhibition": 79.3
  }
]

---

Reported values of inhibition for individual entries
- tested-target: Methyl-CpG-binding domain protein 4 (Homo sapiens);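 also: MBD4 activity read as fluorescence at 594 nm from cleavage and release of a quenched duplex DNA oligonucleotide, with APE1 coupled to incise the strand and raise turnover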
- assay-setup: Compound Concentration 1.0 uM, Hit No
readout-label: inhibition (%)

[
  {
    "given-smiles": "COc1cc(Nc2ncc3c(n2)-c2ccc(Cl)cc2C(c2c(F)cccc2OC)=NC3)ccc1C(=O)O",
    "test-result": 19.9
  },
  {
    "given-smiles": "CS(=O)(=O)NCC[C@H](NC(=O)c1cncc2c1cnn2-c1ccc(F)cc1)c1ccnc(S(C)(=O)=O)c1",
    "test-result": 64.7
  },
  {
    "given-smiles": "COc1ccc2cc(OCC3(C(=O)O)CN(C(=O)c4ccc(F)cc4)C3)ccc2c1",
    "test-result": 76.6
  },
  {
    "given-smiles": "CN(C)CC#Cc1ccc2[nH]c3c(c2c1)-c1nc(N)ncc1CCC3",
    "test-result": 3.44
  },
  {
    "given-smiles": "COc1cc(N[C@@H]2CCCC[C@]2(O)C(F)(F)F)ccc1F",
    "test-result": 65.4
  },
  {
    "given-smiles": "CCc1ccccc1C(=O)Nc1n[nH]c2c(C)c(F)c(C3C(C#N)=C(C)N(C)C(C)=C3C#N)cc12",
    "test-result": 55
  },
  {
    "given-smiles": "O=C(O)[C@H]1[C@H](Cn2nnc3ccccc3c2=O)CC[C@@H]1C(=O)c1ccc(OCCC2CCOCC2)cc1",
    "test-result": 58.9
  },
  {
    "given-smiles": "COc1c(OCCCN2CCOCC2)ccc2c1N=C(NC(=O)c1cnc(N)nc1)N1CCN=C21",
    "test-result": -2.38
  },
  {
    "given-smiles": "Nc1ncc2c(n1)-c1c([nH]c3ccc(C4CC4)cc13)CCCC2",
    "test-result": 4.16
  },
  {
    "given-smiles": "C[C@@H]1CCNC(=O)c2cc3ccc(C(=O)Nc4nc5ccccc5n4CCCN(C)C)cc3n21",
    "test-result": -2.92
  },
  {
    "given-smiles": "COc1cccc(-c2nccc3c2CN(c2ccccc2)C3=O)c1",
    "test-result": 63.1
  },
  {
    "given-smiles": "CNC(=O)Nc1ccc2c(c1)CC[C@@]21OC(=O)N(CC(=O)N(Cc2ccc(F)cc2)[C@@H](C)C(F)(F)F)C1=O",
    "test-result": 58.8
  },
  {
    "given-smiles": "O=C(Cc1ccccc1)Nc1nnc(N2CC[C@@H]3[C@H]2CN3c2cccnn2)s1",
    "test-result": 66
  },
  {
    "given-smiles": "CCN(CC)CCCCNc1ncc2cc(-c3cc(OC)cc(OC)c3)c(NC(=O)NC(C)(C)C)nc2n1",
    "test-result": 12
  }
]
